tested on: E. coli NIHJ JC-2; assay: Anti-microbial activities (MIC); assay type: cell-based; settings: Escherichia coli, NIHJJC2, Sensitivity Disk agar-N+5% Horse blood, 10^6 CFU/ml, read-out: minimum inhibiting concentration (MIC)
quantity-measured: MIC (µg/mL)

1) C[C@@H](O)[C@H]1C(=O)N2C(C(=O)O)=C(S[C@@H]3CN[C@H](Cc4cn5c[n+](C)cc5s4)C3)[C@H](C)[C@H]12 [Compound B, reference compound]	0.05
2) C[C@@H](O)[C@H]1C(=O)N2C(C(=O)O)=C(c3cn4cncc4s3)C[C@H]12	0.1
3) C[C@@H](O)[C@H]1C(=O)N2C(C(=O)O)=C(c3cn4cncc4s3)[C@H](C)[C@H]12	0.1
4) C[C@@H](O)[C@H]1C(=O)N2C(C(=O)O)=C(SCCN=CN)C[C@H]12 [Compound A, imipenem, reference compound]	0.1
